Some binders, each annotated with its measured OD450.
# assay system: T1, naked peptide YCEKNNVRQF (human)
# T1 peptide: YCEKNNVRQF
# protocol summary: ELISA naked peptide; scFv 1 ug/mL; repII
Kindly provide the numeric value in OD only, without the unit symbol.

Below are worked cases with known answers.
Comparative antibody 2 (Comp-2) scFv, 243LO326 (VH SEQ ID NO: 51 and VL SEQ ID NO: 52 of WO 2022/195028 A2), His-tagged (scFv) scFv: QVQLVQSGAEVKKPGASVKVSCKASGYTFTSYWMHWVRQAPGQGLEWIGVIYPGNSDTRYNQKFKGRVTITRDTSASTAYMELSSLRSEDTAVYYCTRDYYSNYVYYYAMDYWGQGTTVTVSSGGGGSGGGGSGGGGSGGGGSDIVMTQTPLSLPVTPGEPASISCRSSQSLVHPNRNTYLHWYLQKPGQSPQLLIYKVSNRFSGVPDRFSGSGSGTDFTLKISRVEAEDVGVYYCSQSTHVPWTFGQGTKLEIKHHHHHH = 0.07
Comparative antibody 1 (Comp-1) scFv, SEQ ID NO: 10 from WO2023/037125 A1, His-tagged (scFv) scFv: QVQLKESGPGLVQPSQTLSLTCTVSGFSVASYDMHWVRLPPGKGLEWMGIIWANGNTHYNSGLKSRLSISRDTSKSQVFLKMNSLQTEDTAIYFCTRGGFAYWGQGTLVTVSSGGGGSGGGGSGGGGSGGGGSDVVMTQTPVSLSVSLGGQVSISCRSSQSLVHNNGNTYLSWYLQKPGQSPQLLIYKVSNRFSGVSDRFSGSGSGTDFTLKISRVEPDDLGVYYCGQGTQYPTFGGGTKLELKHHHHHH = 0.04
Comparative antibody 3 (Comp-3) scFv, SR_92R (Somovilla-Crespo et al. 2018), His-tagged (scFv) scFv: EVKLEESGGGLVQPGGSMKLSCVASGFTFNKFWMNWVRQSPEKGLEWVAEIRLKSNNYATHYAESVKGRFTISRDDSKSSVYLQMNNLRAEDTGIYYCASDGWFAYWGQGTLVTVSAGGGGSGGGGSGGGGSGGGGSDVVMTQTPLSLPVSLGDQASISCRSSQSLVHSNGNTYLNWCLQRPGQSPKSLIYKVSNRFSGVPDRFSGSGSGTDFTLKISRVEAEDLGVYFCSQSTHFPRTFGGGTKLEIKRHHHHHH = 0.03

Attention now turns to another entry.
**Query** // OD450 lookup, key: CCR9_HUM2 scFv (humanized anti-CCR9 scFv, SEQ ID NO: 17 with C-terminal 6xHis tag) (scFv) scFv: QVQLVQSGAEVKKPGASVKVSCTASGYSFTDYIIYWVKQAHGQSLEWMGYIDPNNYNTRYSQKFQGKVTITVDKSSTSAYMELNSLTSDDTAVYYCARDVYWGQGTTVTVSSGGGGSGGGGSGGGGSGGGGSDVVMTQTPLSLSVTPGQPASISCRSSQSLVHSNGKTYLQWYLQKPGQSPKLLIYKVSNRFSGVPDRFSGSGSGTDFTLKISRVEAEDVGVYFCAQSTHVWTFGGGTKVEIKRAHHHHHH
**Result** 0.03
